Where do these numbers come from? They come from patent US20080045559A1.

assay: Pharmacokinetics after intravenous bolus in rats; type: in vivo; conditions: Sprague-Dawley, rat, in vivo, intravenous bolus of emulsion, approximately 14 mg/kg, plasma, read-out: t1/2 (elimination) (converted)

[
  {
    "compound": "CC[C@@]1(OC(=O)CCC(=O)Oc2c(C)c(C)c3c(c2C)CC[C@@](C)(CCC[C@H](C)CCC[C@H](C)CCCC(C)C)O3)C(=O)OCc2c1cc1n(c2=O)Cc2cc3ccccc3nc2-1 [VESA-CPT]",
    "half-life, h": 29.1
  }
]

====

experiment: Pharmacokinetics after intravenous bolus in rats; assay type: in vivo; conditions: Sprague-Dawley, rat, intravenous bolus of emulsion, approximately 14 mg/kg, plasma

[
  {
    "structure smiles": "CCc1c2c(nc3ccc(OC(=O)CCC(=O)Oc4c(C)c(C)c5c(c4C)CC[C@@](C)(CCC[C@H](C)CCC[C@H](C)CCCC(C)C)O5)cc13)-c1cc3c(c(=O)n1C2)COC(=O)[C@]3(O)CC",
    "units of measure": "h",
    "MRT": 5.15
  }
]

====

experiment: Pharmacokinetics after intravenous bolus in rats; assay type: in vivo; conditions: Sprague-Dawley, rat, in vivo, intravenous bolus of emulsion, approximately 14 mg/kg, plasma

[
  {
    "molecule": "CC[C@@]1(OC(=O)CCC(=O)Oc2c(C)c(C)c3c(c2C)CC[C@@](C)(CCC[C@H](C)CCC[C@H](C)CCCC(C)C)O3)C(=O)OCc2c1cc1n(c2=O)Cc2cc3ccccc3nc2-1 [VESA-CPT]",
    "units of measure": "mL/min/kg",
    "clearance": 0.135
  }
]
